- Tgt: D(2) dopamine receptor (Homo sapiens, UniProt P14416)
- Sequence (P14416 whole entry): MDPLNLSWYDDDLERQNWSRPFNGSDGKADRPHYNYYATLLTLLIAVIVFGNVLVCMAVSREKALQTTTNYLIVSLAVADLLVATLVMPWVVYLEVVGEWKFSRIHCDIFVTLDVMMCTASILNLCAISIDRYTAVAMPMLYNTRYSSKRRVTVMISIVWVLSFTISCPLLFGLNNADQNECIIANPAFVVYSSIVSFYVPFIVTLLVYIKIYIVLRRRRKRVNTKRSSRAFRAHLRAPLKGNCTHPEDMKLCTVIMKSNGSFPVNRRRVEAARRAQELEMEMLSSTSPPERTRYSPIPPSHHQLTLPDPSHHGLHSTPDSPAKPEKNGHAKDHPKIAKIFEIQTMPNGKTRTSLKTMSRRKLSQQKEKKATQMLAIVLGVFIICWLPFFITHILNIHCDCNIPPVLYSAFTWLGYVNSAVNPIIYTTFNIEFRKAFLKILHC
- Protocol Summary: Displacement of [3H]-sulpiride from human dopamine D2 receptor expressed in HEK293 cells after 150 mins by liquid scintillation counting
Endpoint Label: Ki (µM)
Write down the numeric answer in µM and omit the unit.

Query :: Which Ki value is on record for `Clc1ccc(N2CCN(CCCCNc3noc(-c4ccccc4)n3)CC2)cc1` ?
Result :: 79.6

---

Listed compounds paired with reported inhibition
- Tgt: D(3) dopamine receptor (Homo sapiens, UniProt P35462)
- Sequence (P35462 whole entry): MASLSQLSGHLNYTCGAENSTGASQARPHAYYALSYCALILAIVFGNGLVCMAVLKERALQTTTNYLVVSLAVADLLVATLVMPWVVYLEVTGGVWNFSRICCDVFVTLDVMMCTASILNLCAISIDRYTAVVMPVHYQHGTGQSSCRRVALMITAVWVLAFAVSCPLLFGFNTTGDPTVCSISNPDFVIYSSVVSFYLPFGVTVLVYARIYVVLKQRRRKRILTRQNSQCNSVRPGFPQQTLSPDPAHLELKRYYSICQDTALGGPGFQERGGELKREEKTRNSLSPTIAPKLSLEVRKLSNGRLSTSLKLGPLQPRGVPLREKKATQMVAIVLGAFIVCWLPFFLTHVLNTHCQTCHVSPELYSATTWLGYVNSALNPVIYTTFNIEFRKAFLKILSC
- Protocol Summary: Displacement of [3H]-sulpiride from human dopamine D3 receptor expressed in HEK293 cells at 1 uM after 150 mins by liquid scintillation counting
- Assay type: cell-based
Write down the numeric answer in % and omit the unit.

These solved cases illustrate the format of a correct answer.
Structure: CCCN(CCCCN1CCN(c2cccc(Cl)c2Cl)CC1)c1noc(-c2ccccc2)n1
Tgt: D(3) dopamine receptor (Homo sapiens, UniProt P35462)
Numeric Readout: 22.1
//
Structure: CCCN(CCCCN1CCN(c2ccccc2F)CC1)c1noc(-c2ccccc2)n1
Tgt: D(3) dopamine receptor (Homo sapiens, UniProt P35462)
Numeric Readout: 3.2
//
Structure: CCCN(CCCCN1CCN(c2ccc(Cl)cc2Cl)CC1)c1noc(-c2ccccc2)n1
Tgt: D(3) dopamine receptor (Homo sapiens, UniProt P35462)
Numeric Readout: 15.1

Query :: Write down the reported inhibition of `CCCN(CCCCN1CCN(c2cccc(C(F)(F)F)c2)CC1)c1noc(-c2ccccc2)n1` , test system: D(3) dopamine receptor (Homo sapiens, UniProt P35462).
Result :: 9.7

---

- Tgt: D(3) dopamine receptor (Homo sapiens, UniProt P35462)
Endpoint Label: Ki (nM)
Write down the numeric answer in nM and omit the unit.

Query :: Which Ki value is on record for `Clc1ccc(N2CCN(CCCCNc3noc(-c4ccccc4)n3)CC2)cc1` ?
Result :: 270

---

Listed compounds paired with reported inhibition
- Tgt: D(2) dopamine receptor (Homo sapiens, UniProt P14416)
- Protocol Summary: Displacement of [3H]-sulpiride from human dopamine D2 receptor expressed in HEK293 cells at 1 uM after 150 mins by liquid scintillation counting
- Type: cell-based
Write down the numeric answer in % and omit the unit.

Structure: CCCN(CCCCN1CCN(c2cccc(Cl)c2Cl)CC1)c1noc(-c2ccccc2)n1
Tgt: D(2) dopamine receptor (Homo sapiens, UniProt P14416)
Endpoint Label: inhibition
Numeric Readout: 50.1

Structure: CCCN(CCCCN1CCN(c2ccc(Cl)cc2Cl)CC1)c1noc(-c2ccccc2)n1
Tgt: D(2) dopamine receptor (Homo sapiens, UniProt P14416)
Endpoint Label: inhibition
Numeric Readout: -0.6

Structure: CCCN(CCCCN1CCN(c2ccccc2F)CC1)c1noc(-c2ccccc2)n1
Tgt: D(2) dopamine receptor (Homo sapiens, UniProt P14416)
Endpoint Label: inhibition
Numeric Readout: 10.6

Query :: Which inhibition value is on record for `CCCN(CCCCN1CCN(c2cccc(C(F)(F)F)c2)CC1)c1noc(-c2ccccc2)n1` ?
Result :: 17.8
